test: Cmax in Beagle dog at 1 mg/kg administered as multiple dose after 7 days; format: ADME, organism-based, Canis lupus familiaris; parameters: dose 1 mg/kg; conditions: in vivo
ENDPOINT: Cmax
Give your result as the value with the unit written after it.

Record `Cc1cc(SCc2nc(-c3ccc(Cl)c(Cl)c3)ns2)ccc1OC(C)(C)C(=O)O` , field Cmax: 1530 ng/mL

###

target: Peroxisome proliferator-activated receptor delta (Homo sapiens, UniProt Q03181); test: Agonist activity at human PPARdelta-Gal4 in HEK293 cells by luciferase reporter assay
Sequence (Q03181 whole entry, the tested form may be a part): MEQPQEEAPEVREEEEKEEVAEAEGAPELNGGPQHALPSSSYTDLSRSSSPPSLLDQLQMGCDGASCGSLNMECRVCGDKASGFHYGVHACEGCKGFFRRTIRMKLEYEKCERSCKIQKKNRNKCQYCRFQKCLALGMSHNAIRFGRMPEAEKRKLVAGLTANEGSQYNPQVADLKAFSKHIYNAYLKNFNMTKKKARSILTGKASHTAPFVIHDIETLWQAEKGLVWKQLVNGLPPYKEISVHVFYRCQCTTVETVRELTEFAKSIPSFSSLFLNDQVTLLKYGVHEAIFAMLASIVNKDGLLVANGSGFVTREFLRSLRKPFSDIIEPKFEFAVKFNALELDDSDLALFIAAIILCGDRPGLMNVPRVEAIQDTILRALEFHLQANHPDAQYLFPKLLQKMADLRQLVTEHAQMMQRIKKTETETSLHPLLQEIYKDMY
Checkbox rule: EC50 lower than 9 nM = fulfilled; EC50 not lower than 9 nM = not fulfilled.

Data request: I wonder whether `Cc1cc(SCc2nc(-c3ccc(Cl)c(Cl)c3)ns2)ccc1OC(C)(C)C(=O)O` has EC50 below 9 nM. Can you tell?
Data returned: fulfilled

Data request: I wonder whether `Cc1ccc(-c2nsc(CSc3ccc(OC(C)(C)C(=O)O)c(C)c3)n2)cc1Cl` has EC50 below 9 nM. Can you tell?
Data returned: not fulfilled

Data request: I wonder whether `Cc1cc(SCc2nc(-c3ccc(OC(F)(F)F)c(Cl)c3)ns2)ccc1OC(C)(C)C(=O)O` has EC50 below 9 nM. Can you tell?
Data returned: fulfilled

Data request: I wonder whether `Cc1cc(SCc2nc(-c3ccc(C(F)(F)F)c(F)c3)ns2)ccc1OC(C)(C)C(=O)O` has EC50 below 9 nM. Can you tell?
Data returned: fulfilled

Data request: I wonder whether `CC(C)(Oc1ccc(SCc2nc(-c3ccc(C(F)(F)F)cc3)ns2)cc1)C(=O)O` has EC50 below 9 nM. Can you tell?
Data returned: not fulfilled

###

test: AUC in ob/ob C57BL/6J-leptin deficient obese mouse at 1 mg/kg administered as multiple dose after 11 days; assay type: ADME, organism-based; design: dose 1 mg/kg; details: plasma
ENDPOINT: AUC at 264 h (ng·h/mL)
Kindly provide the numeric value in ng·h/mL only, without the unit symbol.

Record `Cc1cc(SCc2nc(-c3ccc(Cl)c(Cl)c3)ns2)ccc1OC(C)(C)C(=O)O` , field AUC at 264 h: 47600

###

experiment: AUC in Sprague-Dawley rat at 3 mg/kg administered as single dose on day 8; format: ADME, organism-based; parameters: dose 3 mg/kg; conditions: plasma
ENDPOINT: AUC (ng·h/mL)
Kindly provide the numeric value in ng·h/mL only, without the unit symbol.

Record `Cc1cc(SCc2nc(-c3ccc(Cl)c(Cl)c3)ns2)ccc1OC(C)(C)C(=O)O` , field AUC: 24200

###

molecular target: Peroxisome proliferator-activated receptor alpha (Homo sapiens) (UniProt Q07869); test: Agonist activity at human PPARalpha-Gal4 in HEK293 cells by luciferase reporter assay relative to (S)-2-{2-[1-ethyl-3-(4-trifluoro-methoxyphenyl)ureido]indan-5-ylsulfanyl}-2-methylpropionic acid; assay type: functional, cell-based
Sequence (Q07869 whole entry, the tested form may be a part): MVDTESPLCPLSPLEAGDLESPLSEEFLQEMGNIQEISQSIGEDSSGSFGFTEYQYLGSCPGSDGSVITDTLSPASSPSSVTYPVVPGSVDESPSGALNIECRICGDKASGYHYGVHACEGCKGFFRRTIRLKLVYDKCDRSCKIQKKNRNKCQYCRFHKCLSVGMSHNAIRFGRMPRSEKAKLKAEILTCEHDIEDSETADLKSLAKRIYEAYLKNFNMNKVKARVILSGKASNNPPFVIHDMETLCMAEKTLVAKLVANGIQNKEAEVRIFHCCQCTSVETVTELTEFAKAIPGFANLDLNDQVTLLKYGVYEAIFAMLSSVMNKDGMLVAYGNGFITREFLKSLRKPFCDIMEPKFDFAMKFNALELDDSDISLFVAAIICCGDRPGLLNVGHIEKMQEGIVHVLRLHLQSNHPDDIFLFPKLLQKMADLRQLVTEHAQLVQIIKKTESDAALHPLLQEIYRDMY
ENDPOINT: Efficacy (%)
Kindly provide the numeric value in % only, without the unit symbol.

Examples with their reported Efficacy follow.
> print(dat)
                                chem.smiles  numeric.result
1  Cc1cc(SCc2nc(-c3ccc(C(F)(F)F)cc3)ns2)ccc1OC(C)(C)C(=O)O              51
2  Cc1cc(SCc2nc(-c3ccc(Cl)c(Cl)c3)ns2)ccc1OC(C)(C)C(=O)O              56

Kindly review the next compound as well.
Record `Cc1cc(OCc2nc(-c3ccc(Cl)c(Cl)c3)ns2)ccc1OC(C)(C)C(=O)O` , field Efficacy: 83
